- tested-target: Human IP6K1 (Homo sapiens, UniProt Q92551)
- Construct: GST (N, cleaved yes); made in house; host or cells: C43 E. coli, pGEX-6P-2
- Sequence (Q92551 whole entry): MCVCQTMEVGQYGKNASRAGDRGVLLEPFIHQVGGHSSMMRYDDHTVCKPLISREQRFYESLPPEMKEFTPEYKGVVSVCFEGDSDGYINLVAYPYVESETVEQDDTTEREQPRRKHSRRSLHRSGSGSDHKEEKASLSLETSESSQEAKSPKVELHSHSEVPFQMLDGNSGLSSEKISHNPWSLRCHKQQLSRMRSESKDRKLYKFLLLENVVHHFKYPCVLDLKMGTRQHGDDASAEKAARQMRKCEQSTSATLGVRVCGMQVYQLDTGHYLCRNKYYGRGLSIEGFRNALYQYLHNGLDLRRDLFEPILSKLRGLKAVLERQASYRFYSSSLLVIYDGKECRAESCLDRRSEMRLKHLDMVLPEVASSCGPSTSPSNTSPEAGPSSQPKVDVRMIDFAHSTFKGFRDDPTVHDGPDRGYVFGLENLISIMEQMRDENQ
- assay-method-text: IP6K1 high-throughput screen of the Sigma LOPAC (ADP-Glo Max, single point);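 further: final compound concentration 10µM in 5% DMSO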
- Type: biochemical
- condition-context: Sigma LOPAC single-point screen; Z-score from plate average and StDev
Counter-ions that a name gives are not always drawn.
Kindly return fulfilled if reported Z-score is no lower than 0.9; return not fulfilled if it is lower.

CC[C@]1(O)C[C@H]2CN(CCc3c([nH]c4ccccc34)[C@@](C(=O)OC)(c3cc4c(cc3OC)N(C=O)[C@H]3[C@@](O)(C(=O)OC)[C@H](OC(C)=O)[C@]5(CC)C=CCN6CC[C@]43[C@@H]65)C2)C1 [Vincristine sulfate]: not fulfilled
CCCCC[C@H](CC(=O)NO)C(=O)N[C@H](C(=O)N1CCC[C@H]1CO)C(C)C [Actinonin]: fulfilled

Prompt: Decide: is the reported value of Z-score for Nc1nc2[nH]c(=O)cnc2c(=O)[nH]1 [Isoxanthopterin] equal to or greater than 0.9?
Completion: not fulfilled

Prompt: Item CCC1(c2ccccc2)C(=O)NCNC1=O [Primidone] with Z-score of 0.9 or above?
Completion: not fulfilled

* * *

- tested-target: Human IP6K1 (Homo sapiens, UniProt Q92551)
- Construct: GST (N, cleaved yes); made in house; host or cells: C43 E. coli, pGEX-6P-2
- assay-method-text: IP6K1 high-throughput screen of the Sigma LOPAC (ADP-Glo Max, single point);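 further: final compound concentration 10µM in 5% DMSO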
- Type: biochemical
- condition-context: LOPAC single-point screen; Z-score from raw signal with plate average and StDev
measured-quantity: Z-score
Reply with the value as a number alone.

The reported value for C[C@@H](NC(=O)/C(C#N)=C/c1ccc(O)c(O)c1)c1ccccc1 in terms of Z-score is -0.3635

The measured Z-score associated with CN(C)C(N)=NCCC[C@H](N)C(=O)O.Cl [N^G,N^G-Dimethylarginine hydrochloride] reads -0.4586

* * *

Recorded Z-score, one value per entry.
- tested-target: Human IP6K1 (Homo sapiens, UniProt Q92551)
- Construct: GST (N, cleaved yes); made in house; host or cells: C43 E. coli, pGEX-6P-2
- assay-method-text: IP6K1 high-throughput screen of the Sigma LOPAC (ADP-Glo Max, single point);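 further: final compound concentration 10µM in 5% DMSO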
- Assay type: biochemical
- condition-context: LOPAC single-point screen; Z-score from raw signal with plate average and StDev
Answer field: number only, no words.

# count of solved cases: 5
NC(=O)c1cc[n+](CC2=C(C(=O)[O-])N3C(=O)[C@@H](NC(=O)C(c4ccccc4)S(=O)(=O)[O-])[C@H]3SC2)cc1.O.[Na+] (stereo partly drawn) [Cefsulodin sodium salt hydrate]: -0.1997
CC(N)=NCc1cccc(CN)c1.Cl.Cl [1400W dihydrochloride]: -0.1979
N#C/C(=C\c1ccc(O)c(O)c1)C(=O)Nc1ccccc1: -0.2238
C#C[C@]1(O)CC[C@H]2[C@@H]3CCC4=Cc5oncc5C[C@]4(C)[C@H]3CC[C@@]21C: -0.1645
NS(=O)(=O)c1cccc2c1c([N+](=O)[O-])cc1nc([O-])c([O-])nc12.[Na+].[Na+] [NBQX disodium]: -0.3887

Field: next compound
Observed Z-score, Human IP6K1 (Homo sapiens, UniProt Q92551), CC(Oc1ccc(Oc2cnc3ccc(Cl)cc3n2)cc1)C(=O)O (stereo not drawn) : -0.1915

Values were extracted from paper PMC5706701.
